Assign %Inh to each entry below.
System: BLK
Details: concentration: 1 μM, replicates: in singlicate; n = 1;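 note: KINOMEscan kinase panel screen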
Supply the numeric figure in %, leaving out any unit text.

// Input: O=C(Nc1ccc2c(c1)OCO2)NC1CCN(c2ccnc(NCc3ccc(F)cc3)n2)CC1 [GSK1379859] . Output its %Inh only.
43

// Input: O=C(NCc1cccs1)c1cc(C(=O)c2c(Cl)cccc2Cl)c[nH]1 [GW823670] . Output its %Inh only.
28

// Input: COc1cc2nccc(Nc3cccc(Oc4ccccc4)c3)c2cc1OC.Cl [GW284543] . Output its %Inh only.
69

// Input: COc1cccc(-n2cnc3c(N)ncnc32)c1 [SKF-97416] . Output its %Inh only.
0

// Input: CCS(=O)c1ccc(-c2coc3ccc(-c4nnc(C)o4)cc23)cc1 (centres unmarked) . Output its %Inh only.
3

* * *

Tested on: BMX
Conditions: concentration: 1 μM, replicates: in singlicate; n = 1
measurement_kind: %Inh (%)
Supply the numeric figure in %, leaving out any unit text.

// Input: `Cc1ccc(-c2ccc3c(ccc4sc5c(c43)NC[C@@H](C)N=C5N(C)C)n2)cn1` . Output its %Inh only.
0

// Input: `CCC(=O)c1c(-c2ccccc2)c2cc(Cl)ccc2c(=O)n1Cc1cc(S(C)(=O)=O)n(CCC(C)(C)O)n1` . Output its %Inh only.
33

// Input: `COc1ccc(-c2cc3c(C)nc(N)nc3n([C@H]3CC[C@H](OCCO)CC3)c2=O)cn1` . Output its %Inh only.
0

* * *

System: IKK-alpha
Construct: gene CHUK
Conditions: concentration: 1 μM, replicates: in singlicate; n = 1
measurement_kind: %Inh
Entry format: amount then unit.

// Input: `CCC(=O)c1c(-c2ccccc2)c2cc(Cl)ccc2c(=O)n1Cc1ccc(C(=O)O)cc1` . Output its %Inh only.
0%

// Input: `Fc1cccc(CSc2nnc(-c3ccc4c(c3)CCO4)o2)c1` . Output its %Inh only.
14%

// Input: `CCc1ccc(-c2ccc3c(c2)-c2nn(C)cc2S(=O)(=O)N3C)cc1` . Output its %Inh only.
0%

// Input: `COC(=O)c1c(-c2ccccc2)c2cc(C)ccc2c(=O)n1Cc1ccccc1` . Output its %Inh only.
0%

// Input: `CCCNC(=O)Nc1ccc(Oc2ncnc3ccn(C)c23)cc1` . Output its %Inh only.
1%

* * *

Assign %Inh to each entry below.
Tested on: STK39
Details: concentration: 1 μM, replicates: in singlicate; n = 1
Entry format: amount then unit.

// Input: COc1cc2ncn(-c3cc(OCc4ccncc4Br)c(C(N)=O)s3)c2cc1OC [GW854278] . Output its %Inh only.
0%

// Input: Cc1cccc(-c2cc(-c3c[nH]nc3-c3ccccn3)ccn2)c1 [GW679395] . Output its %Inh only.
30%

// Input: COc1cc(Nc2ccnc3ccc(C(F)(F)F)cc23)cc(OC)c1OC [GW577382] . Output its %Inh only.
16%

// Input: `CCc1nc(-c2cccc(C)c2)c(-c2ccncc2)s1` . Output its %Inh only.
0%

// Input: COc1cccc(C2=C(Nc3cccc(C(=O)O)c3)C(=O)NC2=O)c1 [SB-390770] . Output its %Inh only.
0%

// Input: O=C(NCCNc1ccnc(Nc2ccc(F)cc2)n1)Nc1ccc2c(c1)OCO2 [GSK1379882] . Output its %Inh only.
12%

// Input: `Cc1nc(N(C)[C@H]2CN(C(=O)CC#N)CC[C@H]2C)c2cc[nH]c2n1` . Output its %Inh only.
0%

// Input: COc1cc(Nc2nccc(N3CCC(NC(=O)C4COc5ccccc5O4)C3)n2)cc(OC)c1OC (stereo not drawn) [GSK1379761] . Output its %Inh only.
0%

// Input: Cc1nnc(-c2ccc3ncn(-c4ccc(S(C)=O)cc4)c3c2)o1 (stereo not drawn) . Output its %Inh only.
0%

* * *

System: CDK4-cyclinD3
Conditions: concentration: 1 μM, replicates: in singlicate; n = 1
measurement_kind: %Inh (%)
Supply the numeric figure in %, leaving out any unit text.

Give reported %Inh for `CCC(=O)c1c(-c2ccccc2)c2cc(Cl)ccc2c(=O)n1Cc1ccc(C(=O)O)cc1` (CDK4-cyclinD3)
0

Give reported %Inh for `C[C@@H]1CC[C@H](C(=O)NC2CCCCC2)CN1c1cc(-c2ccc3c(N)n[nH]c3c2)nc(N)n1` (CDK4-cyclinD3)
0

Give reported %Inh for `COc1cc(Nc2ccnc3ccc(C(F)(F)F)cc23)cc(OC)c1OC` (CDK4-cyclinD3)
0

Give reported %Inh for `COc1ccc(-c2coc3ccc(-c4nnc(SCc5cccc(C#N)c5)o4)cc23)cc1` (CDK4-cyclinD3)
0

Give reported %Inh for `COc1cc(OC)cc(-c2cc3cnc(N)nc3nc2NC(=O)NC(C)(C)C)c1` (CDK4-cyclinD3)
8

Give reported %Inh for `O=C(Nc1n[nH]c2nc(-c3ccccc3)c(Br)cc12)C1CC1` (CDK4-cyclinD3)
0

Give reported %Inh for `CCn1c(-c2nonc2N)nc2ccccc21` (CDK4-cyclinD3)
46

Give reported %Inh for `COc1ccc(-n2cnc3c(N)ncnc32)cc1` (CDK4-cyclinD3)
0

Give reported %Inh for `Cc1cccc(-c2cc(-c3c[nH]nc3-c3ccccn3)ccn2)c1` (CDK4-cyclinD3)
0

* * *

Assign %Inh to each entry below.
Tested on: FGR
Details: concentration: 1 μM, replicates: in singlicate; n = 1
Supply the numeric figure in %, leaving out any unit text.

// Input: `O=C(Nc1n[nH]c2cc(-c3ccccc3F)ccc12)C1CC1` . Output its %Inh only.
14

// Input: `Cl.NS(=O)(=O)c1cccc(Nc2cc(-c3ccc(F)cc3)n[nH]2)c1` . Output its %Inh only.
0

// Input: `CCC(=O)c1c(-c2ccccc2)c2cc(Cl)ccc2c(=O)n1Cc1cc(S(C)(=O)=O)n(CC(N)=O)n1` . Output its %Inh only.
0

// Input: `COc1cc(OC)cc(-c2cc3cnc(N)nc3nc2NC(=O)NC(C)(C)C)c1` . Output its %Inh only.
0

// Input: `CCn1c(-c2ccoc2)nc2cnccc21` . Output its %Inh only.
10

* * *

System: BUB1
Settings: concentration: 1 μM, replicates: in singlicate; n = 1
measurement_kind: %Inh (%)
Supply the numeric figure in %, leaving out any unit text.

// Input: Cc1c(Cn2c(C)nn3c(=O)cc(N4CCO[C@H](C)C4)nc23)cccc1C(F)(F)F [GSK2373690] . Output its %Inh only.
0

// Input: `COC(=O)c1c(-c2ccccc2)c2cc(Br)ccc2c(=O)n1Cc1ccc(S(C)(=O)=O)cc1` . Output its %Inh only.
15

// Input: `CC(C)(C)c1ccc(C(=O)Nc2cn3cc(-c4ccccc4)ccc3n2)cc1` . Output its %Inh only.
0

// Input: Cl.NS(=O)(=O)c1cccc(Nc2cc(-c3ccc(F)cc3)n[nH]2)c1 [GW824645] . Output its %Inh only.
36

// Input: CCn1c(-c2nonc2N)nc2ccccc21 [SB-693162/GW549034] . Output its %Inh only.
0

// Input: CCn1c(-c2ccoc2)nc2cnccc21 [SB-733887] . Output its %Inh only.
59

// Input: O=C(Nc1n[nH]c2cc(-c3ccccc3F)ccc12)C1CC1 [SB-733371] . Output its %Inh only.
0

// Input: `Cc1nc(N(C)[C@H]2CN(C(=O)CC#N)CC[C@H]2C)c2cc[nH]c2n1` . Output its %Inh only.
0

// Input: `Fc1cccc(CSc2nnc(-c3ccc4c(c3)CCO4)o2)c1` . Output its %Inh only.
25

* * *

System: GRK4
Conditions: concentration: 1 μM, replicates: in singlicate; n = 1
measurement_kind: %Inh (%)
Supply the numeric figure in %, leaving out any unit text.

// Input: `COc1ccc(-c2coc3ccc(-c4nnc(SCc5cccc(C#N)c5)o4)cc23)cc1` . Output its %Inh only.
0

// Input: `COc1ccc(-c2cc3c(C)nc(N)nc3n([C@H]3CC[C@H](O)CC3)c2=O)cn1` . Output its %Inh only.
0

// Input: `COc1cc(Nc2ccnc3ccc(C(F)(F)F)cc23)cc(OC)c1OC` . Output its %Inh only.
0

// Input: `Nc1nccc2scc(-c3ccc4c(c3)CCN4C(=O)Cc3ccccc3)c12` . Output its %Inh only.
0

// Input: `CCCNC(=O)Nc1ccc(Oc2ncnc3ccn(C)c23)cc1` . Output its %Inh only.
6

// Input: `COc1cccc(-n2cnc3c(N)ncnc32)c1` . Output its %Inh only.
10

// Input: `CCC(=O)c1c(-c2ccccc2)c2cc(Cl)ccc2c(=O)n1Cc1cc(S(C)(=O)=O)n(CCC(C)(C)O)n1` . Output its %Inh only.
0

// Input: `Cc1nnc(-c2ccc(C)c(-c3ccc(C(=O)O)cc3)c2)o1` . Output its %Inh only.
0

// Input: `Nc1n[nH]c2nnc(-c3ccccc3)c(-c3ccccc3)c12` . Output its %Inh only.
6
